All figures here come from patent US12049460B2.

The following molecules are listed with their measured IC50 values.
- targetEntity: EGFR L858R (Homo sapiens, UniProt P00533, L858R)
- Sequence (P00533 25-1210 L858R): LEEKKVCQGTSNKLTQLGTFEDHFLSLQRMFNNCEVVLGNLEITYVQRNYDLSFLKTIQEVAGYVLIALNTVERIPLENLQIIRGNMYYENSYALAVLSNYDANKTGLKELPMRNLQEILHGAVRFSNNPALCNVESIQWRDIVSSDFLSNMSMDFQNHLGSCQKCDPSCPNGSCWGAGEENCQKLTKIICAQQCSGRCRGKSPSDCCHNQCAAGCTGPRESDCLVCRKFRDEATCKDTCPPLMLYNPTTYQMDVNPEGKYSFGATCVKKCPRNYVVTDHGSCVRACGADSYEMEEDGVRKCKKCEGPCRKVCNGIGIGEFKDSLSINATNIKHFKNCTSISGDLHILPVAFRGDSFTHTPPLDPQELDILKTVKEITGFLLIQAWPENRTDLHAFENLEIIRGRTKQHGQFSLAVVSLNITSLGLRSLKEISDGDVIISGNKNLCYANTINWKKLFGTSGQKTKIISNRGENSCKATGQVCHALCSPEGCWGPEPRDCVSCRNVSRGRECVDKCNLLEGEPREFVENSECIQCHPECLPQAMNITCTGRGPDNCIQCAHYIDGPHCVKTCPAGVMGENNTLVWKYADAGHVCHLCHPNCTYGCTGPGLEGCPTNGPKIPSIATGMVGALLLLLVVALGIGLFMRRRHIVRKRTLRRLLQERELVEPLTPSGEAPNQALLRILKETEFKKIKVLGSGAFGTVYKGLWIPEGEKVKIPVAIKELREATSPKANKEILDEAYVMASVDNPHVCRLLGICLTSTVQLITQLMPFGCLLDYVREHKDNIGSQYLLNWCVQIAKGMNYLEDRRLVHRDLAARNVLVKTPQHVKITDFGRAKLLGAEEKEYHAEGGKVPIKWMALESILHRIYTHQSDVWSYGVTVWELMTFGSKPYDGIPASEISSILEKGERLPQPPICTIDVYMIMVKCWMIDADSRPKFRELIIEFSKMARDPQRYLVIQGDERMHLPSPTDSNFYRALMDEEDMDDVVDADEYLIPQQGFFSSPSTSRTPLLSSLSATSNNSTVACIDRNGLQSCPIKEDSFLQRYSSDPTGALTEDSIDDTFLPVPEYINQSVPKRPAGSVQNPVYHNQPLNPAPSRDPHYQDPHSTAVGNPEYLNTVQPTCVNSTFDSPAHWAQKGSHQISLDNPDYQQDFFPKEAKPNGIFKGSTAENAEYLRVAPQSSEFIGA
- methodNotes: EGFR biochemical enzyme assay, L858R

INSERT INTO measurements (structurenotation, targetentity, result) VALUES
  ('C=CC(=O)Nc1cc(Nc2nccc(-c3cn(C)c4ccccc34)n2)c(OC)cc1N(C)C12CC(N(C)C)(C1)C2', 'EGFR L858R (Homo sapiens, UniProt P00533, L858R)', '≥ 100 nM');

[ask] Retrieve IC50 on EGFR L858R (Homo sapiens, UniProt P00533, L858R); query `C=CC(=O)Nc1cc(Nc2nccc(-c3cn(C45CC(F)(C4)C5)c4ccccc34)n2)c(OC)cc1N(C)CCN(C)C`
[reply] ≤ 10 nM

[ask] Retrieve IC50 on EGFR L858R (Homo sapiens, UniProt P00533, L858R); query `C=CC(=O)Nc1cc(Nc2nccc(-c3cn(C45CC(C4)C5)c4ccccc34)n2)c(OC)cc1N(C)CCN(C)C`
[reply] ≤ 10 nM
